target_under_test: T1, Pex13, P80667
T1 sequence (P80667 295-386, looked up): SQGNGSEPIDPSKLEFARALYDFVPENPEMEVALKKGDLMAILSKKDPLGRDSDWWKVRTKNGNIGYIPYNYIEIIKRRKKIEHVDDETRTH
assay_info: SPOT array
condition_notes: median of control spots 1341
reported_endpoint: SPOT intensity

DGNEEKPLLPTRPNK | 81
VDFTLPPPPPPPGLD | 2
LEFRAILFIPKRAPF | 59

P: KFIPSRPAPKPPSSA
Q: QGYPRQPQRPQRYHP
Of P and Q , whose reported SPOT intensity is the larger number? # respond with the chosen item's label
P

1: RMVRRRPLRVQFSAR
2: NNNKMRPHLPPLSSG
Parameter metric = SPOT intensity. Return the lower-valued option from 1 and 2 . # respond with the chosen item's label
1
(1: 17, 2: 84)
